method-description: Cytotoxicity in Artemia cysts assessed as mortality of nauplii at 20 ug/mL after 24 hrs relative to control
Type: organism-based
setup-conditions: in vivo
Consider the following compounds and their measured mortality at 24 h, 20 ug/mL readings.

# compound, mortality at 24 h, 20 ug/mL
measured = [
    ("C=CCn1c(=O)c(C2C(C(=O)OC(C)C)=C(N)N(NC(=O)c3ccncc3)C3=C2C(=O)CC(C)(C)C3)cc2cc(Cl)ccc21 (stereo unspecified)", "30%"),
    ("C=CCn1c(=O)c(C2C(C(=O)OCC)=C(N)N(NC(=O)c3ccncc3)C3=C2C(=O)CC(C)(C)C3)cc2cc(C)ccc21 (stereo unspecified)", "30%"),
    ("C=CCn1c(=O)c(C2C(C(=O)OC)=C(N)N(NC(=O)c3ccncc3)C3=C2C(=O)CC(C)(C)C3)cc2cc(C)ccc21 (stereo unspecified)", "20%"),
    ("C=CCn1c(=O)c(C2C(C(=O)OCC)=C(N)N(NC(=O)c3ccncc3)C3=C2C(=O)CC(C)(C)C3)cc2cc(OC)ccc21 (stereo unspecified)", "30%"),
    ("C=CCn1c(=O)c(C2C(C(=O)OC(C)C)=C(N)N(NC(=O)c3ccncc3)C3=C2C(=O)CC(C)(C)C3)cc2cc(C)ccc21 (stereo unspecified)", "30%"),
    ("C=CCn1c(=O)c(C2C(C(=O)OC)=C(N)N(NC(=O)c3ccncc3)C3=C2C(=O)CCC3)cc2cc(OC)ccc21 (stereo unspecified)", "40%"),
]

###

# maps each entry to its log10(MIC)
Tested on: Staphylococcus aureus
method-description: Antibacterial activity against Staphylococcus aureus MTCC 96 assessed as growth inhibition by broth microdilution method
Assay type: functional
property: log10(MIC) (log10 of the value in µg/mL)

# compound, log10(MIC)
records = [
    ("C=CCn1c(=O)c(C2C(C(=O)OC)=C(N)N(NC(=O)c3ccncc3)C3=C2C(=O)CC(C)(C)C3)cc2cc(C)ccc21 (stereo not given)", 2.70),
    ("C=CCn1c(=O)c(C2C(C(=O)OCC)=C(N)N(NC(=O)c3ccncc3)C3=C2C(=O)CCC3)cc2cc(C)ccc21 (stereo not given)", 2.00),
    ("C=CCn1c(=O)c(C2C(C(=O)OC(C)C)=C(N)N(NC(=O)c3ccncc3)C3=C2C(=O)CCC3)cc2cc(C)ccc21 (stereo not given)", 2.70),
    ("CCn1cc(C(=O)O)c(=O)c2cc(F)c(N3CCNCC3)cc21 [NORFLOXACIN]", 1.00),
    ("C=CCn1c(=O)c(C2C(C(=O)OC)=C(N)N(NC(=O)c3ccncc3)C3=C2C(=O)CC(C)(C)C3)cc2cc(Cl)ccc21 (stereo not given)", 2.30),
    ("C=CCn1c(=O)c(C2C(C(=O)OCC)=C(N)N(NC(=O)c3ccncc3)C3=C2C(=O)CC(C)(C)C3)cc2ccccc21 (stereo not given)", 2.40),
    ("C=CCn1c(=O)c(C2C(C(=O)OCC)=C(N)N(NC(=O)c3ccncc3)C3=C2C(=O)CCC3)cc2ccccc21 (stereo not given)", 2.40),
    ("C=CCn1c(=O)c(C2C(C(=O)OC)=C(N)N(NC(=O)c3ccncc3)C3=C2C(=O)CCC3)cc2cc(OC)ccc21 (stereo not given)", 2.30),
    ("C=CCn1c(=O)c(C2C(C(=O)OC)=C(N)N(NC(=O)c3ccncc3)C3=C2C(=O)CCC3)cc2cc(C)ccc21 (stereo not given)", 2.70),
    ("C=CCn1c(=O)c(C2C(C(=O)OC(C)C)=C(N)N(NC(=O)c3ccncc3)C3=C2C(=O)CC(C)(C)C3)cc2cc(Cl)ccc21 (stereo not given)", 2.10),
    ("C=CCn1c(=O)c(C2C(C(=O)OCC)=C(N)N(NC(=O)c3ccncc3)C3=C2C(=O)CC(C)(C)C3)cc2cc(Cl)ccc21 (stereo not given)", 2.40),
    ("CC1(C)S[C@@H]2[C@H](NC(=O)[C@H](N)c3ccccc3)C(=O)N2[C@H]1C(=O)O [AMPICILLIN]", 2.40),
    ("C=CCn1c(=O)c(C2C(C(=O)OC(C)C)=C(N)N(NC(=O)c3ccncc3)C3=C2C(=O)CC(C)(C)C3)cc2cc(OC)ccc21 (stereo not given)", 2.70),
    ("C=CCn1c(=O)c(C2C(C(=O)OC(C)C)=C(N)N(NC(=O)c3ccncc3)C3=C2C(=O)CC(C)(C)C3)cc2ccccc21 (stereo not given)", 2.70),
    ("O=C(N[C@H](CO)[C@H](O)c1ccc([N+](=O)[O-])cc1)C(Cl)Cl [CHLORAMPHENICOL]", 1.70),
]
